# SUBJECT_OF_TEST: T1, recombinant human IL-36R (ECD) (human, UniProt Q9HB29 20-332)
# T1 construct: range 20-332; also called IL-1RL2; IL-1Rrp2
# T1 sequence (looked up): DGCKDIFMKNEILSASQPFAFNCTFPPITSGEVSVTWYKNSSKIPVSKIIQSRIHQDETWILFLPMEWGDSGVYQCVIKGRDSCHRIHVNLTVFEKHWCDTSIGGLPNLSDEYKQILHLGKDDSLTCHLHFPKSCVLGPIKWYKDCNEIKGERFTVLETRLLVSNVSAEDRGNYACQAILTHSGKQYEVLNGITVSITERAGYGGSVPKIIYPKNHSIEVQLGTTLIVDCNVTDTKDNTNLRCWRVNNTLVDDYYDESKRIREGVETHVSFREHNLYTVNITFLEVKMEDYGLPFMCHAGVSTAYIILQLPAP
# TEST_NAME: SPR (ProteOn), recombinant human IL-36R at 7 surface densities, global fit
QUANTITY_NAME: Kd (nM)
Provide the reading as a plain figure in nM.

BINDER: antibody 33D10 (antibody, V domains shown, Mouse monoclonal from hybridoma; also called 33D10B12; Mouse 33D10) VH: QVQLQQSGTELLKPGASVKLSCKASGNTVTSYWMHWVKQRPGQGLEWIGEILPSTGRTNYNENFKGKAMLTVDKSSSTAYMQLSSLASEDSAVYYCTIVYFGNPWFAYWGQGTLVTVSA VL: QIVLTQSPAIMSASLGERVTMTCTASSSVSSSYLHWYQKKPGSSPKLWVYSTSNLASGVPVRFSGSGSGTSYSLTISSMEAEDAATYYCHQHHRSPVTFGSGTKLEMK
UNIT_ANNOTATION: nM
Kd: 0.009

Tell me measured Kd for antibody 78C8 (antibody, V domains shown, Mouse monoclonal from hybridoma; also called 78C8D1; Mouse 78C8) VH: QVQLKESGPVLVAPSQSLSITCTVSGFSLTKFGVHWIRQTPGKGLEWLGVIWAGGPTNYNSALMSRLTISKDISQSQVFLRIDSLQTDDTAMYYCAKQIYYSTLVDYWGQGTSVTVSS VL: DVLLTQTPLSLPVSLGDQASISCRSSQNIVHSNGNTYLQWYLQKPGQSPKLLIYKVSNRFSGVPDRFSGSGSGTDFTLKISRVEAEDLGVYYCFQGSHVPFTFGAGTKLELK please.
0.063

Data origin: patent US20200231684A1
